experiment: OD615 S. cerevisiae growth inhibition, permissive medium, pilot counter-assay, permissive growth control for S. cerevisiae lifespan shortening project (AID 705); conditions: OD615, 24 h, at 10 µM, hits give high values
Catalogue of growth inhibition values
Provide the reading as a plain figure in %.

Answered examples (5):
molecule	recorded_metric	measure_unit	observed_value
COc1ccccc1N1CCN(C(=O)CCCCn2c(=O)[nH]c3ccsc3c2=O)CC1	growth inhibition	%	-4.33
CC(=O)Nc1nc(CC(=O)c2ccccc2)cs1	growth inhibition	%	-2.4
CCCOc1nc2c(c(=O)n(C)c(=O)n2C)n1CCC	growth inhibition	%	-7.2
O=C(CN1CCCCC1)Nc1nnc(-c2ccccc2)s1	growth inhibition	%	-11.4
CCc1cc(C(=O)Cc2cnn(-c3ccccc3)c2)c(O)cc1O	growth inhibition	%	-6.31

Task: Item under review: Cc1ccccc1-c1nc(CS(=O)CC(=O)NCc2ccccc2)c(C)o1 (stereo unspecified) . Reported growth inhibition?
Result: 0.295

Task: Item under review: CCCOC(=O)c1ccc(-n2nnnc2SCC(=O)N2CCCCC2)cc1 . Reported growth inhibition?
Result: -11.6
